- Test system: DMS 273 small cell lung
- experiment summary: NCI tumour cell line growth inhibition, 48 h
Record form. Attribute: TGI. Fill in for each entry.
Answers are plain numbers, in µM.

COC(=O)C1=CC2OC13CC1CCC3(C2=O)C1(C)C (stereo not drawn) = 24.6

Problem: I am curious: what TGI value has been reported for `CSC(=S)NNC(=O)c1ccncc1` ?
Result: 46.1

----------
Exercise: for every item that follows, state its recorded TGI.
- Tested on: OVCAR-8 ovarian
- experiment summary: NCI tumour cell line growth inhibition, 48 h

As a guide, the following entries are already answered.
COc1ccc(Nc2ccnc(NCCCNc3ccnc4cc(Cl)ccc34)n2)cc1 = 5.16 µM
O=C(O)CC1(C(=O)O)CCCCC1 = > 100 µM
COc1cc(/C=C2\N=C(c3ccccc3)N(/N=C/c3cc4cc(C)ccc4nc3Cl)C2=O)cc(OC)c1OC = > 100 µM
Cc1ccc2sc3c(NCCCNCCO)nc4ccccc4c3c(=O)c2c1 = 3.61 µM
O=S1c2ccc(Cl)cc2CC(SSC2Cc3cc(Cl)ccc3S(=O)c3ccccc32)c2ccccc21 (stereo not given) = > 100 µM

Please give TGI, item by item, for the list that follows.
1. CCOC(=O)c1c(NC(=O)c2ccc(OC)cc2)sc2c1CCCC2
2. O=C(O)Cc1[nH]cnc1C(=O)O
3. COc1ccc2c(c1)[n+]([O-])c(-c1nc3ccccc3s1)c(N)[n+]2[O-]
4. O=C1NC(Cc2c[nH]c3ccccc23)C(=O)N2C(c3ccccc3)c3[nH]c4ccccc4c3C[C@@H]12 (stereo not given in full)
5. COc1cc(-c2nc3ccccc3s2)ccc1OCc1nc2n(n1)S(=O)(=O)c1ccccc1N2C
6. CCn1c(SCC(=O)NNC(=S)Nc2ccc(F)cc2)nc2ccccc2c1=O
7. COC1CC2CCC(C)[C@](O)(O2)C(=O)C(=O)N2CCCCC2C(=O)OC(C(C)CC2CCC(O)C(OC)C2)CC(=O)C(C)C=C(C)C(OC(=O)CN(C)C)C(OC)C(=O)C(C)CC(C)/C=C/C=C/C=C\1C (stereo not given in full)
8. CCO/C(O)=C(/C(=N)N1CCCC1)C(=O)Nc1ccc(Cl)cc1

Result:
1: > 100 µM; 2: > 100 µM; 3: > 100 µM; 4: 82.7 µM; 5: > 100 µM; 6: > 100 µM; 7: 62.5 µM; 8: > 100 µM
